Each entry below carries its recorded Emax.
# Tested target: Full-length glucokinase (beta cell isoform) (Homo sapiens)
# Construct: Full-length glucokinase (beta cell isoform) was His-tagged at N-terminus; His tag (N); made in house
# Sequence (P35557 whole entry, species assumed, canonical isoform): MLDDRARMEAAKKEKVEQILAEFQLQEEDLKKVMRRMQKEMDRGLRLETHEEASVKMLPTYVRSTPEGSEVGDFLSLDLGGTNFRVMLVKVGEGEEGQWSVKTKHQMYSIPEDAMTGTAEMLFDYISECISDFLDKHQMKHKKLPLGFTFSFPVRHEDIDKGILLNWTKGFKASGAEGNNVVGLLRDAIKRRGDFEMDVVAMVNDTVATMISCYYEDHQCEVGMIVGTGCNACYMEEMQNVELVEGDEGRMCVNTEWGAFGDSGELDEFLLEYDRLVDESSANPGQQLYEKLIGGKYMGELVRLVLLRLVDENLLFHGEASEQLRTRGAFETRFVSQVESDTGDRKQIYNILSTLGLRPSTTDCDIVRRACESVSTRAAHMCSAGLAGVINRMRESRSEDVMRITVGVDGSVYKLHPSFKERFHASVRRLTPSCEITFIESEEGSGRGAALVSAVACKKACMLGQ
# Assay name: Glucokinase biochemical assay (PK/LDH-coupled, NADH depletion at 340 nm): % activation, EC50, % max activation
# Cond: fitted maximum activation; 5 mM glucose, 1 mM ATP; read-out: % Max Activation
Please reply with the bare figure in % and do not write the unit itself.

Entry CC(C)CN1Cc2c(Oc3ccc(S(C)(=O)=O)cc3)cc(C(=O)Nc3ccn(C)n3)cc2C1=O [Example 382] : reported Emax = ? 156

Entry CN(CC#N)C(=O)c1ccc(Oc2cc(C(=O)Nc3ccn(C)n3)cc3c2CC(C)(C)O3)cn1 [Example 399] : reported Emax = ? 231

Entry Cc1ccc(NC(=O)c2cc(Oc3ccc(S(C)(=O)=O)cc3)c3c(c2)C(=O)N(C)C3)nc1 [Example 376] : reported Emax = ? 90

Entry Cn1ccc(NC(=O)c2cc(Oc3ccc(C(=O)N4CCCC4)nc3)c3c(c2)OC(C)(C)C3)n1 [Example 398] : reported Emax = ? 114

Entry CNC(=O)c1c(F)cc(Oc2cc(C(=O)Nc3ccn(C)n3)cc3c2CC(C)(C)O3)cc1F [Example 400] : reported Emax = ? 177

Entry Cn1ccc(NC(=O)c2cc(Oc3ccc(C(=O)N4CC(F)C4)nc3)c3c(c2)OC(C)(C)C3)n1 [Example 397] : reported Emax = ? 202

Entry Cc1ccc(NC(=O)c2cc(Oc3ccc(S(C)(=O)=O)cc3)c3c(c2)C(=O)N(CC(C)C)C3)nc1 [Example 381] : reported Emax = ? 132

Entry Cn1ccc(NC(=O)c2cc(Oc3cnc(C(=O)N4CC(F)C4)c(F)c3)c3c(c2)OC(C)(C)C3)n1 [Example 403] : reported Emax = ? 191

Entry Cn1ccc(NC(=O)c2cc(Oc3cnc(C(=O)N4CCC4)cn3)c3c(c2)OC(C)(C)C3)n1 [Example 396] : reported Emax = ? 212

Entry Cc1ccc(NC(=O)c2cc(Oc3ccc(S(=O)(=O)C4CC4)c(F)c3)c3c(c2)OC(C)(CO)C3)nc1 (single isomer, unassigned; (+)) [Example 401] : reported Emax = ? 139

Entry Cc1ccc(NC(=O)c2cc(Oc3ccc(S(C)(=O)=O)cc3)c3c(c2)C(=O)N(C2CC2)C3)nc1 [Example 385] : reported Emax = ? 107

Entry CCN1Cc2c(Oc3ccc(S(C)(=O)=O)cc3)cc(C(=O)Nc3ccc(C)cn3)cc2C1=O [Example 379] : reported Emax = ? 98
